Measured on: HLA-B*40:01
Method summary: IEDB peptide-MHC binding, purified MHC/competitive/radioactivity; filed as Kd, often an IC50 or EC50 that approximates it; bounds were set here for any values at or beyond the usual limits of such assays
Test conditions: source organism: Mammarenavirus lassaense
pKd: −log10 of the molar value.
Observed property: pKd

Record sequence: FDAATTGSL
Observed property: pKd
Experimental value: 4.78

###

Measured on: HLA-B*46:01
Method summary: IEDB peptide-MHC binding, purified MHC/direct/fluorescence; filed as Kd, often an IC50 or EC50 that approximates it; bounds were set here for any values at or beyond the usual limits of such assays
Test conditions: source organism: Zaire ebolavirus
pKd: −log10 of the molar value.
Observed property: pKd

Record sequence: RLAKLTEAI
Experimental value: ≤ 4.70

###

Measured on: HLA-A*30:02
Method summary: IEDB peptide-MHC binding, purified MHC/competitive/radioactivity; filed as Kd, often an IC50 or EC50 that approximates it; bounds were set here for any values at or beyond the usual limits of such assays
Test conditions: source organism: Mammarenavirus whitewaterense
pKd: −log10 of the molar value.

Record sequence: ELINIPYCNY
pKd: 7.05
--
Record sequence: CSYKIGHHV
pKd: 7.03

###

Measured on: HLA-A*80:01
Method summary: IEDB peptide-MHC binding, purified MHC/direct/fluorescence; filed as Kd, often an IC50 or EC50 that approximates it; bounds were set here for any values at or beyond the usual limits of such assays
Test conditions: source organism: Camelpox virus M-96

Record sequence: NTDAFSREY
Measured on: HLA-A*80:01
Kd / nM: 567

###

Measured on: HLA-A*03:01
Method summary: IEDB peptide-MHC binding, purified MHC/direct/fluorescence; filed as Kd, often an IC50 or EC50 that approximates it; bounds were set here for any values at or beyond the usual limits of such assays
Test conditions: source organism: Reston ebolavirus - Reston

Record sequence: QLSLRMLSL
Kd: ≥ 20 µM

###

Overview of recorded Kd for various sequences
Measured on: HLA-A*03:01
Method summary: IEDB peptide-MHC binding, purified MHC/direct/fluorescence; filed as Kd, often an IC50 or EC50 that approximates it; bounds were set here for any values at or beyond the usual limits of such assays
Test conditions: source organism: Francisella tularensis subsp. holarctica LVS

Record sequence: RIYCQENPY
Kd, µM: 0.0917
--
Record sequence: KLYGLSQGY
Kd, µM: 0.0047

###

Measured on: HLA-B*27:03
Method summary: IEDB peptide-MHC binding, purified MHC/competitive/fluorescence; filed as Kd, often an IC50 or EC50 that approximates it; bounds were set here for any values at or beyond the usual limits of such assays
Test conditions: source organism: Entamoeba histolytica
Observed property: Kd

Record sequence: RASHFRKLF
Measured on: HLA-B*27:03
Observed property: Kd
Experimental value: ≥ 20 µM

###

Overview of recorded pKd for various sequences
Measured on: HLA-A*02:12
Method summary: IEDB peptide-MHC binding, purified MHC/direct/fluorescence; filed as Kd, often an IC50 or EC50 that approximates it; bounds were set here for any values at or beyond the usual limits of such assays
Test conditions: source organism: Zaire ebolavirus
pKd: −log10 of the molar value.

Record sequence: ATAAATEAY
pKd: ≤ 4.70

Record sequence: HQKKNEISF
pKd: ≤ 4.70

###

Overview of recorded Kd for various sequences
Measured on: HLA-A*02:01
Method summary: IEDB peptide-MHC binding, purified MHC/competitive/radioactivity; filed as Kd, often an IC50 or EC50 that approximates it; bounds were set here for any values at or beyond the usual limits of such assays
Test conditions: source organism: Vaccinia virus WR
Observed property: Kd

Record sequence: ATLMKTSCSK
Measured on: HLA-A*02:01
Observed property: Kd
Experimental value: ≥ 69.4 µM

Record sequence: LLFASMGFK
Measured on: HLA-A*02:01
Observed property: Kd
Experimental value: 4.83 µM

Record sequence: RPDTRHLRVL
Measured on: HLA-A*02:01
Observed property: Kd
Experimental value: ≥ 69.4 µM

Record sequence: VTNLISETLK
Measured on: HLA-A*02:01
Observed property: Kd
Experimental value: ≥ 69.4 µM
